Source of measurements: PubChem BioAssay

assay system: NADPH oxidase 4 (Homo sapiens)
assay info: NOX4-dependent H2O2 signal modulators, primary screen, NOX inhibitor project, cell-based, HEK293-NOX4, tetracycline-induced, Amplex Red fluorescence (AID 1160)
condition summary: 45 min, higher = more signal, called active from +8 up or from −8 down
measure name: z-score
Form field (numeric): enter value without unit.

Entry C=CC[C@]1(C(=O)NCCCOC)N=C(c2ccc(OCCCO)cc2)O[C@H]1c1ccccc1CN=[N+]=[N-] : reported z-score = ?
0.649

Entry C=CCNC(=O)[C@@H]1[C@H]2C(=O)O[C@H](c3ccccc3)[C@H](c3ccccc3)N2[C@H](c2ccc(O)cc2)[C@@]12C(=O)Nc1ccc(C#CCNC(N)=O)cc12 : reported z-score = ?
-0.211

Entry COCCCNC(=O)[C@]1(CCC(=O)OC(C)(C)C)N=C(c2ccc(OCCCO)cc2)O[C@@H]1c1ccccc1CN=[N+]=[N-] : reported z-score = ?
0.289

Entry CCCC[C@@H]1C[C@H]1[C@@H](NC(=O)c1cccs1)c1ccc(-c2ccccc2)cc1 : reported z-score = ?
-0.827

Entry COc1ccc(-c2cc3c(c(-c4ccc(Oc5ccccc5)cc4)n2)[Si](C(C)C)(C(C)C)OC3)cn1 : reported z-score = ?
0.412

Entry COCCOC(=O)N1C(=O)[C@@]2(c3cc(C#CCC(C(=O)OC)C(=O)OC)ccc31)[C@H](C(=O)Nc1nc3ccccc3s1)[C@H]1C(=O)O[C@H](c3ccccc3)[C@H](c3ccccc3)N1[C@@H]2c1ccccc1OCCO : reported z-score = ?
0.671

Entry COCCOC(=O)N1C(=O)[C@@]2(c3cc(C#CCC(C(=O)OC)C(=O)OC)ccc31)[C@H](c1ccccc1OCCO)N1[C@H](c3ccccc3)[C@H](c3ccccc3)OC(=O)[C@H]1[C@@H]2C(=O)NC[C@H](O)c1ccccc1 : reported z-score = ?
1.07

Entry C=CCC(OC(C)=O)[C@@H]1[C@@H](N(Cc2cccc3ccccc23)C(=O)c2ccc(-c3ccccc3)cc2)c2cc(OCCCO)ccc2N1C(=O)c1ccc2ccccc2c1 (stereo partly specified) : reported z-score = ?
0.624

Entry NC(=O)N1C(=O)C2C(C1=O)C1C=C(c3ccc(CO)cc3)C2C(c2cccs2)N1Cc1cccc(OC(F)(F)F)c1 (stereo unspecified) : reported z-score = ?
-1.22

Entry C[C@H]1NC(=O)[C@@]23C(=O)N[C@@H](Cc4ccccc4)C2[C@H](C)[C@@]2(C)O[C@H]2C3/C=C/C/C=C\CNC(=O)[C@@H]2CCCN2C1=O (stereo partly specified) : reported z-score = ?
1.41

Entry NC(=O)NCC#Cc1ccc2c(c1)[C@]1(C(=O)N2)[C@H](c2ccccc2OCCO)N2[C@H](c3ccccc3)[C@H](c3ccccc3)OC(=O)[C@H]2[C@@H]1C(=O)Nc1nc2ccccc2s1 : reported z-score = ?
1.32

###

assay info: adipocyte viability effects, profiling panel, cell-based, 3T3-L1 adipocytes, calcein-AM fluorescence, 48 h, basal (AID 1163); further: test concentration not given here
condition summary: 3T3-L1 adipocytes viability, higher = more signal
# note: exactly 0.9 is not below, so it is F; use T for z-score strictly under it

Hello, I'm reviewing records and need to know if z-score of COC(=O)[C@@]1(CCC(=O)OC(C)(C)C)N=C(c2ccc(OCCCO)cc2)O[C@H]1c1ccccc1N=[N+]=[N-] is below 0.9. Could you check?
F

Hello, I'm reviewing records and need to know if z-score of C=CC[C@@]12N=C(c3ccc(OCCCO)cc3)O[C@@H]1c1ccccc1N(C)C2=O is below 0.9. Could you check?
T

Hello, I'm reviewing records and need to know if z-score of C=CCOC(=O)[C@H]1[C@@H]2C(=O)O[C@@H](c3ccccc3)[C@@H](c3ccccc3)N2[C@@H](c2ccc(OCCOC(=O)[C@@H]3C[C@@H]4C(=O)N[C@@H](CC(C)C)C(=O)N4[C@@H]3c3ccc(O)cc3)cc2)[C@]12C(=O)Nc1ccccc12 is below 0.9. Could you check?
T

Hello, I'm reviewing records and need to know if z-score of O=C1C2C=CC(C(O)c3cccc4ccccc34)N(Nc3ccccc3F)C2C(=O)N1c1ccccc1 (stereo not drawn) is below 0.9. Could you check?
T

Hello, I'm reviewing records and need to know if z-score of Oc1ccc2cc[n+](Cc3sc4ccccc4c3Cl)cc2c1 is below 0.9. Could you check?
T

Hello, I'm reviewing records and need to know if z-score of CC(C)C(CO)N1C(=O)[C@@H]2C3C(=O)OCCC/C=C\[C@H]3OC23C=CCN(CCN2CCOCC2)C(=O)[C@@H]13 (stereo partly drawn) is below 0.9. Could you check?
T

Hello, I'm reviewing records and need to know if z-score of COCCOC(=O)N1C(=O)[C@@]2(c3cc(C#CCC(C(=O)OC)C(=O)OC)ccc31)[C@H](c1ccccc1OCCO)N1[C@H](c3ccccc3)[C@H](c3ccccc3)OC(=O)[C@H]1[C@@H]2C(=O)N1CCN(c2ncccn2)CC1 is below 0.9. Could you check?
F

###

assay system: Alpha-bungarotoxin (Bungarus multicinctus)
assay info: alpha-bungarotoxin binders on microarray, profiling panel, artefact control for SMM control protein annotation, biochemical, small-molecule microarray, Alexa647 label, 635/667 nm fluorescence (AID 1117)
condition summary: alpha-BTX-A647 binding fluorescence, higher = more signal
Classification field: T = composite z-score at or over 0.6; F = composite z-score under 0.6.

Reported composite z-score reaches at least 0.6 for Cc1ccc(S[C@]2(C(=O)NCCCN(C)C)CC(=O)N(Cc3cc(C(F)(F)F)cc(C(F)(F)F)c3)[C@@H]2c2ccc(CO)cc2)cc1 ?
F

Reported composite z-score reaches at least 0.6 for C=CCC(OC(C)=O)[C@@H]1[C@@H](N(Cc2cccc3ccccc23)C(=O)c2ccc(-c3ccccc3)cc2)c2cc(OCCCO)ccc2N1C(=O)c1ccc2ccccc2c1 (stereo not given in full) ?
F

Reported composite z-score reaches at least 0.6 for COC(=O)C(CC#Cc1ccc2c(c1)[C@]1(C(=O)N2)[C@H](c2ccc(OCCO)cc2)N2[C@H](c3ccccc3)[C@H](c3ccccc3)OC(=O)[C@H]2[C@@H]1C(=O)N1CCc2cc(OC)c(OC)cc2C1)C(=O)OC ?
T

Reported composite z-score reaches at least 0.6 for O=C1C[C@@](C(=O)NCCN2CCOCC2)(c2ccc([N+](=O)[O-])cc2)[C@@H](c2ccc(CO)cc2)N1CC12CC3CC(CC(C3)C1)C2 ?
T

Reported composite z-score reaches at least 0.6 for C=C(/C(=C/C[C@H](OC(C)=O)c1ccccc1OCCO)c1cnc2ccccc2c1)C(C)C ?
T

Reported composite z-score reaches at least 0.6 for Cc1ccc(S[C@]2(C(=O)NCCCN(C)C)CC(=O)N(Cc3ccccc3C(F)(F)F)[C@@H]2c2ccc(CO)cc2)cc1 ?
F

Reported composite z-score reaches at least 0.6 for COC(=O)[C@H](Cc1ccccc1)N1CC2=C[C@@H](C3CC3)n3c(=O)n(C)c(=O)n3[C@H]2[C@@H]1[C@@H](O)Cc1ccccc1 ?
F

Reported composite z-score reaches at least 0.6 for CCOC(=O)C[C@H]1[C@H](OC(=O)c2ccc(C(=O)c3ccccc3)cc2)[C@@H](NC(=O)c2ccccc2)c2cc(OCCCO)ccc2N1C(=O)c1ccc2ccccc2n1 ?
T

Reported composite z-score reaches at least 0.6 for COc1cc(Br)cc(C(O)C2C=CC3C(=O)N(C)C(=O)C3N2N2CCCCC2)c1OC (stereo not given) ?
F

Reported composite z-score reaches at least 0.6 for NC(=O)NCC#Cc1ccc2c(c1)[C@]1(C(=O)N2)[C@H](C(N)=O)[C@H]2C(=O)O[C@H](c3ccccc3)[C@H](c3ccccc3)N2[C@@H]1c1ccc(O)cc1 ?
T

Reported composite z-score reaches at least 0.6 for CCCC[C@@H]1C[C@H]1[C@@H](NC(=O)c1ccco1)c1ccccc1C(F)(F)F ?
T

Reported composite z-score reaches at least 0.6 for CC1(C)C2C=C(C(O)C3C=CC4C(=O)NC(=O)C4N3Nc3ccc(Cl)cc3Cl)C[C@@H]1C2 (stereo not given in full) ?
T

Reported composite z-score reaches at least 0.6 for COCCOC(=O)N1C(=O)[C@@]2(c3cc(C#CCC(C(=O)OC)C(=O)OC)ccc31)[C@H](c1ccccc1OCCO)N1[C@H](c3ccccc3)[C@H](c3ccccc3)OC(=O)[C@H]1[C@@H]2C(=O)N1CCN(c2ncccn2)CC1 ?
T

Reported composite z-score reaches at least 0.6 for COC(=O)[C@@]1(Cc2ccccc2)N=C(c2ccc(OCCCO)cc2)O[C@H]1c1ccccc1 ?
T

Reported composite z-score reaches at least 0.6 for C=CCC(OC(C)=O)[C@@H]1[C@@H](N(Cc2ccc(-c3cccc(C(F)(F)F)c3)o2)C(=O)c2ccc(C)cc2)c2cc(OCCCO)ccc2N1C(=O)Cc1ccc2ccccc2c1 (stereo not given in full) ?
F

Reported composite z-score reaches at least 0.6 for O=C(NCCN1CCOCC1)[C@@H]1c2ccccc2C(=O)N(C2CCCCC2)[C@H]1c1ccc(CO)cc1 ?
F

Reported composite z-score reaches at least 0.6 for COc1cc2c(cc1O)C(c1cccs1)N(C)CC2 (stereo not given) ?
F

Reported composite z-score reaches at least 0.6 for C=C(CCCC)/C(=C/C[C@H](OC(C)=O)c1ccccc1OCCO)c1cc(C(=O)OC)ccc1OC ?
F

Reported composite z-score reaches at least 0.6 for C[N+](C)(C)CCCC[C@@H]1NC(=O)[C@H]2C[C@@H](C(=O)NCCCCCCNC(=O)CS)[C@@H](c3cccc(OCCO)c3)N2C1=O ?
F

Reported composite z-score reaches at least 0.6 for COc1ccccc1CN1C(=O)c2ccccc2[C@@]2(Cc3ccccc3N(CC(C)C)C2=O)[C@@H]1c1ccc(CO)cc1 ?
F

Reported composite z-score reaches at least 0.6 for CC1(C)[C@@H]2CC(C(O)C3C=CC4C(=O)N(c5ccccc5)C(=O)C4N3Nc3ccc([N+](=O)[O-])cc3)=C[C@H]1C2 (stereo not given in full) ?
T

Reported composite z-score reaches at least 0.6 for CC(C)C(O)C1C=CC2C(=O)NC(=O)C2N1Nc1ccc(Cl)cc1Cl (stereo not given) ?
T

Reported composite z-score reaches at least 0.6 for COc1ccccc1CN1C(=O)c2ccccc2[C@@H](C(=O)NC2CC2)[C@@H]1c1ccc(CO)cc1 ?
T

Reported composite z-score reaches at least 0.6 for N#Cc1ccc(NN2C(C(O)C(c3ccccc3)c3ccccc3)C=CC3C(=O)N(c4ccccc4)C(=O)C32)cc1 (stereo not given) ?
T
